Item-by-item account of %Inh
# Tested on: PAK7;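 also: KINOMEscan kinase panel screen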
# Study conditions: concentration: 1 μM, replicates: in singlicate; n = 1
Reported endpoint: %Inh (%)

Molecule: COc1cc(Nc2nccc(N3CCC(NS(=O)(=O)c4ccc(NC(C)=O)cc4)CC3)n2)cc(OC)c1OC
Reported endpoint: %Inh
Reported result: 1

Molecule: NCCC(NC(=O)c1cc(Br)c(-c2ccnc3[nH]ccc23)s1)c1ccccc1.O=C(O)C(F)(F)F.O=C(O)C(F)(F)F (stereo not shown)
Reported endpoint: %Inh
Reported result: 86

Molecule: COc1ccc(NC(=O)c2ccoc2)cc1-c1ccc(C(=O)NCC2CC2)cc1
Reported endpoint: %Inh
Reported result: 10

Molecule: Cc1nn2c(=O)cc(N3CCO[C@H](C)C3)nc2n1Cc1cccc(Cl)c1Cl
Reported endpoint: %Inh
Reported result: 0

Molecule: CS(=O)(=O)c1cccc(CNc2nc(Nc3ccc4c(c3)CCC(=O)N4)ncc2C(F)(F)F)c1
Reported endpoint: %Inh
Reported result: 0

Molecule: Cc1cc(-c2ccnc(Nc3cccc(C#N)c3)n2)cc(C)c1O
Reported endpoint: %Inh
Reported result: 0

Molecule: Cn1cc(-c2ccc3c(c2)CCN3C(=O)Cc2cc(F)cc(C(F)(F)F)c2)c2c(N)ncnc21
Reported endpoint: %Inh
Reported result: 16

Molecule: CN(c1ccc(NC(=O)Nc2cccc(Cl)c2)cc1)c1ccnc(N)n1.Cl
Reported endpoint: %Inh
Reported result: 0

Molecule: CC(C)c1nc(-c2ccc(F)c(NS(=O)(=O)c3c(F)cccc3F)c2)c(-c2ccnc(Nc3ccc(N4CCOCC4)nc3)n2)s1
Reported endpoint: %Inh
Reported result: 10

Molecule: COC(=O)Nc1nc2ccc(Oc3ccc(CC(=O)Nc4cc(C(F)(F)F)ccc4F)cc3)cc2[nH]1
Reported endpoint: %Inh
Reported result: 97.7

Molecule: Cc1ccccc1CC(=O)N1CCc2cc(-c3cn(C)c4ncnc(N)c34)ccc21
Reported endpoint: %Inh
Reported result: 0

Molecule: COC(=O)Nc1nc2ccc(Oc3ccc(NC(=O)Nc4cc(C(F)(F)F)ccc4F)cc3)cc2[nH]1.Cl
Reported endpoint: %Inh
Reported result: 0

Molecule: Cc1ccc(-c2ccc3occ(-c4ccc(S(C)=O)cc4)c3c2)nn1 (stereo not shown)
Reported endpoint: %Inh
Reported result: 0

Molecule: COc1cccc(CC(=O)N2CCc3cc(-c4cn(C)c5ncnc(N)c45)ccc32)c1
Reported endpoint: %Inh
Reported result: 18

Molecule: O=C(O)C(F)(F)F.O=c1[nH]ccc2nc(N[C@@H]3CCNC3)nc(Nc3cc(Cl)cc(Cl)c3)c12
Reported endpoint: %Inh
Reported result: 99.9

Molecule: Nc1cccc(-c2ccc3c(N)n[nH]c3c2)c1
Reported endpoint: %Inh
Reported result: 15
